As shown below, each of these compounds has a reported normalised cell number value.
assay: differential killing of epithelial or mesenchymal cells, primary screen, imaging, PC-3E GFP, TEM4-18 mCherry, co-culture (AID 1345086); details: imaging cell counts, measured here: mesenchymal TEM4-18 mCherry cell survival, at 1 µM;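 further: cells exposed to compound for 72 h before imaging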
Give the figure only, with no unit attached.

[[record]]
compound = "Nc1ccc(-c2ccccc2)cc1"
property_name = "normalised cell number"
numeric_result = 1.03

[[record]]
compound = "C=CCc1cc(OC)c2c(c1OC)OCO2"
property_name = "normalised cell number"
numeric_result = 0.87

[[record]]
compound = "Clc1ccc(CSC(Cn2ccnc2)c2ccc(Cl)cc2Cl)cc1 (stereo unspecified)"
property_name = "normalised cell number"
numeric_result = 1

[[record]]
compound = "C[C@]12CCC(=O)C=C1C=CC1C2CC[C@@]2(C)C1CC[C@@]2(O)CCC(=O)O (stereo partly specified)"
property_name = "normalised cell number"
numeric_result = 1.17

[[record]]
compound = "COc1cc2c3cc1Oc1c(OC)c(OC)cc4c1[C@@H](Cc1cccc(c1)Oc1ccc(c(O)c1)C[C@@H]3N(C)CC2)N(C)CC4"
property_name = "normalised cell number"
numeric_result = 0.86


Query :: Tell me the measured normalised cell number of COc1cc2c(cc1OC)[C@@H]1C(=O)c3ccc4c(c3O[C@@H]1CO2)CC(C(C)C)O4 (stereo partly specified) , please.
Result :: 0.64

----------
assay: survival rescue of mitochondrial mutant cells in low glucose, primary screen, MELAS cybrids, Rieske KO mouse fibroblasts, CellTiter-Glo (AID 1508586); conditions: MELAS cybrid survival, CellTiter-Glo 48 h;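 further: z relative to plate mean and SD of compound and empty wells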
Active and inactive are the calls of the source.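 How the source made its calls: active means mean z-score across replicates of 1.96 or higher in either the MELAS or the Rieske mutant cell line; inactive means the rest.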
Pick one and only one: TRUE = active, FALSE = inactive

[[record]]
compound = "CCN1CCN(C(=O)Cc2ccc(Nc3ncc(F)c(Nc4ccc(C(=O)Nc5ccccc5Cl)cc4)n3)cc2)CC1"
class_label = "TRUE"


Query :: Look up the recorded call for N[C@@H](Cc1ccc(N(CCCl)CCCl)cc1)C(=O)O in this test.
Result :: FALSE

Query :: // repeat for COc1ccc(N(C(=O)Oc2c(C)cccc2C)c2ccnc(Nc3ccc(N4CCN(C)CC4)cc3)n2)c(OC)c1 and report
Result :: FALSE

Query :: // repeat for CC(=O)[C@H]1CC[C@H]2[C@@H]3CC[C@H]4C[C@H](O)CC[C@]4(C)[C@H]3C(=O)C[C@]12C and report
Result :: FALSE

Query :: // repeat for C[C@]12NC(Cc3ccccc31)c1ccccc12 and report
Result :: FALSE

Query :: // repeat for COCC1OC(=O)c2coc3c2[C@@]1(C)C1=C(C3=O)[C@@H]2CCC(=O)[C@@]2(C)CC1OC(C)=O (stereo partly drawn) and report
Result :: TRUE

Query :: // repeat for Cc1cccc(C)c1NC(=O)CN1CCCC1=O and report
Result :: FALSE

Query :: // repeat for CN1CCc2cc3c(cc2[C@H]1[C@@H]1OC(=O)c2c1ccc1c2OCO1)OCO3 and report
Result :: FALSE

Query :: // repeat for CCCC(C)(COC(N)=O)COC(=O)NC(C)C (stereo not drawn) and report
Result :: FALSE

----------
assay: ovarian cancer cell viability with rucaparib, profiling panel, oncology-focused library, rucaparib conditional (AID 1508598); conditions: patient-derived ovarian cancer cells, CellTiter-Glo viability, 144 h; at 0.000305 µM; OCI-P5x cells; with rucaparib 20 µM; 100% = cells with rucaparib alone
Active and inactive are the calls of the source.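 How the source made its calls: active means normalized viability below 100% at a tested concentration; inactive means the rest.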
Pick one and only one: yes (1) (active), no (0) (inactive)

Solved cases (5 shown):
[[record]]
compound = "Cc1sc2c(c1C)C(c1ccc(Cl)cc1)=N[C@@H](CC(N)=O)c1nnc(C)n1-2"
class_label = "yes (1)"

[[record]]
compound = "O=S(=O)(CC1CS1)c1ccc(Oc2ccccc2)cc1 (stereo unspecified)"
class_label = "yes (1)"

[[record]]
compound = "Cc1c(N)nc([C@H](CC(N)=O)NC[C@@H](N)C(N)=O)nc1C(=O)N[C@H](C(=O)N[C@@H](C)[C@H](O)[C@@H](C)C(=O)N[C@@H](C(=O)NCCc1nc(-c2nc(C(=O)NCCC[S+](C)C)cs2)cs1)[C@@H](C)O)C(O[C@H]1O[C@H](CO)[C@H](O)[C@@H](O)[C@H]1O[C@H]1O[C@H](CO)[C@@H](O)[C@H](OC(N)=O)[C@@H]1O)c1cnc[nH]1 (stereo partly specified)"
class_label = "no (0)"

[[record]]
compound = "C/C(=C\\c1csc(C)n1)[C@H]1C[C@@H]2O[C@]2(C)CCC[C@H](C)[C@H](O)[C@@H](C)C(=O)C(C)(C)[C@H](O)CC(=O)O1"
class_label = "yes (1)"

[[record]]
compound = "Cn1c(CCCC(=O)O)nc2cc(N(CCCl)CCCl)ccc21"
class_label = "no (0)"


Attention now shifts to the item below.
Query :: Look up the recorded call for Cn1cc(C2=C(c3cn(C4CCN(Cc5ccccn5)CC4)c4ccccc34)C(=O)NC2=O)c2ccccc21 in this test.
Result :: no (0)

----------
tested on: Aerobactin synthetase IucA (Klebsiella pneumoniae); experiment: IucA aerobactin synthetase inhibitors, biochemical, Tocris library, absorbance (AID 1345561); conditions: purified IucA enzyme assay, absorbance (OD) read-out; stronger effect = lower value;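 tested at 8 µM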;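 further: 100% = enzyme without compound and 0% = no enzyme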
As shown below, each of these compounds has a reported remaining activity value.
Note: unit % is implicit; provide only the numeric part.

Below, 5 compounds whose answers are already recorded.
[[record]]
compound = "CN1C[C@H](CNC(=O)OCc2ccccc2)C[C@@H]2c3cccc4c3c(cn4C)C[C@H]21"
target_system = "Aerobactin synthetase IucA (Klebsiella pneumoniae)"
property_name = "remaining activity"
u = "%"
numeric_result = 86.6

[[record]]
compound = "CC(C)[C@@]1(NC(=O)[C@@H]2C[C@@H]3c4cccc5[nH]cc(c45)C[C@H]3N(C)C2)O[C@@]2(O)[C@@H]3CCCN3C(=O)[C@H](Cc3ccccc3)N2C1=O"
target_system = "Aerobactin synthetase IucA (Klebsiella pneumoniae)"
property_name = "remaining activity"
u = "%"
numeric_result = 88.2

[[record]]
compound = "CCCCC1(C2CCCC2)Cc2cc(OCCCC(=O)O)c(Cl)c(Cl)c2C1=O (stereo unspecified)"
target_system = "Aerobactin synthetase IucA (Klebsiella pneumoniae)"
property_name = "remaining activity"
u = "%"
numeric_result = 98.2

[[record]]
compound = "COC1(C[S@@](=O)c2ccccc2)CCN(CCc2c[nH]c3ccc(F)cc23)CC1"
target_system = "Aerobactin synthetase IucA (Klebsiella pneumoniae)"
property_name = "remaining activity"
u = "%"
numeric_result = 113

[[record]]
compound = "CC[C@@H](CO)NC(=O)[C@@H]1C=C2c3cccc4c3c(cn4C)C[C@H]2N(C)C1"
target_system = "Aerobactin synthetase IucA (Klebsiella pneumoniae)"
property_name = "remaining activity"
u = "%"
numeric_result = 121


Okay, now this compound:
Query :: Tell me the measured remaining activity of C=CCN1C[C@H](C)N([C@H](c2ccc(C(=O)N(CC)CC)cc2)c2cccc(O)c2)C[C@H]1C , please.
Result :: 99.4

----------
assay: ovarian cancer cell viability with rucaparib, profiling panel, oncology-focused library, rucaparib conditional (AID 1508598); conditions: patient-derived ovarian cancer cells, CellTiter-Glo viability, 144 h; at 0.0781 µM; OCI-C5x cells; without rucaparib; stronger effect = lower value
As shown below, each of these compounds has a reported viability value.
Note: unit % is implicit; provide only the numeric part.

Below, 6 compounds whose answers are already recorded.
[[record]]
compound = "C/C(=C\\c1csc(C)n1)[C@H]1C[C@@H]2O[C@]2(C)CCC[C@H](C)[C@H](O)[C@@H](C)C(=O)C(C)(C)[C@H](O)CC(=O)O1"
u = "%"
numeric_result = 27.6

[[record]]
compound = "CC(C)[C@@]12O[C@@H]1[C@@H]1O[C@]13[C@]1(O[C@@H]1C[C@@H]1C4=C(CC[C@@]13C)C(=O)OC4)[C@@H]2O"
u = "%"
numeric_result = 9.36

[[record]]
compound = "Cc1c(N)nc([C@H](CC(N)=O)NC[C@@H](N)C(N)=O)nc1C(=O)N[C@H](C(=O)N[C@@H](C)[C@H](O)[C@@H](C)C(=O)N[C@@H](C(=O)NCCc1nc(-c2nc(C(=O)NCCC[S+](C)C)cs2)cs1)[C@@H](C)O)C(O[C@H]1O[C@H](CO)[C@H](O)[C@@H](O)[C@H]1O[C@H]1O[C@H](CO)[C@@H](O)[C@H](OC(N)=O)[C@@H]1O)c1cnc[nH]1 (some centres not stated)"
u = "%"
numeric_result = 95

[[record]]
compound = "C/C(=C\\c1csc(C)n1)[C@H]1C[C@@H]2O[C@@H]2CCC[C@H](C)[C@H](O)[C@@H](C)C(=O)C(C)(C)[C@H](O)CC(=O)O1"
u = "%"
numeric_result = 22.1

[[record]]
compound = "Cc1sc2c(c1C)C(c1ccc(Cl)cc1)=N[C@@H](CC(N)=O)c1nnc(C)n1-2"
u = "%"
numeric_result = 48.1

[[record]]
compound = "O=S(=O)(CC1CS1)c1ccc(Oc2ccccc2)cc1 (configuration not stated)"
u = "%"
numeric_result = 102


Okay, now this compound:
Query :: Tell me the measured viability of Cn1cc(C2=C(c3cn(C4CCN(Cc5ccccn5)CC4)c4ccccc34)C(=O)NC2=O)c2ccccc21 , please.
Result :: 149
